tested on: SW480; assay: TCF/Wnt firefly luciferase reporter signal relative to plate median (fraction of plate median); higher = higher Wnt reporter signal; settings: 5 µM; treatment time 24 h; reporter: 7TFP
Recorded TCF/Wnt firefly luciferase reporter signal determines the label; the label ranges are bottom = under 0.9, middle = from 0.9 up to 1, top = 1 and over

Example entries begin here.
- compound: "Cc1cc(O)cc(=O)o1"
  label_value: "top"
- compound: "Cc1ccc(/C(=C\\CN2CCCC2)c2ccccn2)cc1"
  label_value: "middle"

## Task Looking at `OCc1ccccc1O` , which class would you pick?
## Result bottom

## Task Please report the category associated with `N[C@@H](CC(=O)N1CCn2c(nnc2C(F)(F)F)C1)Cc1cc(F)c(F)cc1F` , nothing else.
## Result middle

## Task Lab note: which band did `COc1ccc2c(c1)[C@@]1(C)CC[C@@H](O)C[C@@H]1CC2` land in?
## Result middle

## Task Field: class (TCF/Wnt firefly luciferase reporter signal) — entry: Cc1c(C)c2c(c(C)c1O)CCC(C)(COc1ccc(CC3SC(=O)NC3=O)cc1)O2 (configuration not stated)
## Result top

## Task Hi there! Could you help me figure out the category for `NC1(C(=O)O)CCCC1` please?
## Result top

## Task Into which bin does this compound go? `N[C@@H](CCC(=O)N[C@@H](CS)C(=O)NCC(=O)O)C(=O)O`
## Result top

## Task Which category fits this record: Cc1oc(C(C)O)c2c1C(=O)c1c(O)cccc1C2=O (configuration not stated)
## Result top

## Task Exam item: assign `COc1cc(OC)c2c(OC)c(-c3ccc4c(c3)OCO4)c(=O)oc2c1` to the correct category.
## Result bottom

## Task Which TCF/Wnt firefly luciferase reporter signal category applies to CCN(CC)CCCC(C)Nc1ccnc2cc(Cl)ccc12 (configuration not stated) here?
## Result top

## Task Which bin, given its TCF/Wnt firefly luciferase reporter signal, does `Oc1ccc(O)cc1` occupy?
## Result top

## Task Exercise: read the entry N[C@H]1C(O)O[C@H](CO)[C@@H](O)[C@@H]1O (some centres not stated) and state which class it falls under.
## Result top
